procedure_summary: thioesterase activity (production of TNB at 412 nm)
Type: biochemical
applied_conditions: crude cell extract; 200 μM substrate; expressed from pCA24N
assay_metric: Specific activities of selected thioesterases on Acetoacetyl-CoA

{"molecule": "YciA: E. coli acyl-CoA thioesterase (protein, UniProt P0A8Z0 1-132, looked up) Acyl-CoA thioester hydrolase …: MSTTHNVPQGDLVLRTLAMPADTNANGDIFGGWLMSQMDIGGAILAKEIAHGRVVTVRVEGMTFLRPVAVGDVVCCYARCVQKGTTSVSINIEVWVKKVASEPIGQRYKATEALFKYVAVDPEGKPRALPVE", "recorded_measurement": "0.672 ± 0.007 μmol/mg protein/min"}
{"molecule": "TesB: E. coli thioesterase II (protein, UniProt P0AGG2 2-286, looked up) Acyl-CoA thioesterase 2: SQALKNLLTLLNLEKIEEGLFRGQSEDLGLRQVFGGQVVGQALYAAKETVPEERLVHSFHSYFLRPGDSKKPIIYDVETLRDGNSFSARRVAAIQNGKPIFYMTASFQAPEAGFEHQKTMPSAPAPDGLPSETQIAQSLAHLLPPVLKDKFICDRPLEVRPVEFHNPLKGHVAEPHRQVWIRANGSVPDDLRVHQYLLGYASDLNFLPVALQPHGIGFLEPGIQIATIDHSMWFHRPFNLNEWLLYSVESTSASSARGFVRGEFYTQDGVLVASTVQEGVMRNHN", "recorded_measurement": "0.056 ± 0.001 μmol/mg protein/min"}
{"molecule": "YdiI: E. coli Acyl-CoA thioesterase (protein, UniProt P77781 1-136, looked up) 1,4-dihydroxy-2-naphthoyl-CoA …: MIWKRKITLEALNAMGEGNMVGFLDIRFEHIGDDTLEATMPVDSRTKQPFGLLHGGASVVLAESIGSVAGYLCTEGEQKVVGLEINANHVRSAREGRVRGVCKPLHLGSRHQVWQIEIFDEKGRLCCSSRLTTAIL", "recorded_measurement": "0.047 ± 0.001 μmol/mg protein/min"}
